measurement target: Proto-oncogene tyrosine-protein kinase Src (Homo sapiens) (UniProt P12931)
Sequence (P12931 2-536 limits assumed): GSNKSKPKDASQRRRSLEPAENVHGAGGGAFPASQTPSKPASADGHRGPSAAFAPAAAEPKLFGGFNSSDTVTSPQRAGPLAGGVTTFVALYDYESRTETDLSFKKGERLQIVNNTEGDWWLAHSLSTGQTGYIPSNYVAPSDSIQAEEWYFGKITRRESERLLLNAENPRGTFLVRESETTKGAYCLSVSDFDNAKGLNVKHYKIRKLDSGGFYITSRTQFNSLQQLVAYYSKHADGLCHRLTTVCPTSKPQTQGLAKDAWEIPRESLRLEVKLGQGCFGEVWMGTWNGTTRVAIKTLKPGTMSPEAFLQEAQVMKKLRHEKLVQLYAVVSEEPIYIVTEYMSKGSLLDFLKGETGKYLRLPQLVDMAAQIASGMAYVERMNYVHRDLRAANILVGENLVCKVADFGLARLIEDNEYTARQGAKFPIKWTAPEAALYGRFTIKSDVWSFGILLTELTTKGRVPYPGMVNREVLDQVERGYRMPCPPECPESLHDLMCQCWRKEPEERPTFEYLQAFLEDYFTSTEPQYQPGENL
condition context: at 10 µM
Description: Inhibition of c-Src at 10 uM
measured parameter: inhibition (%)

Some compounds with recorded inhibition:
CCCC(CCC)C(=O)Oc1cccc(-c2nc(N3CCOCC3)c3cc4ncccc4n3n2)c1    49.8
Oc1cccc(-c2nc(N3CCOCC3)c3cc4ncccc4n3n2)c1    65.3
O=C(Oc1cccc(-c2nc(N3CCOCC3)c3cc4ncccc4n3n2)c1)c1ccco1    47.9
C=CC(=O)Oc1cccc(-c2nc(N3CCOCC3)c3cc4ncccc4n3n2)c1    56.2
CCC(=O)Oc1cccc(-c2nc(N3CCOCC3)c3cc4ncccc4n3n2)c1    52.8

(1) CC(=O)Oc1cccc(-c2nc(N3CCOCC3)c3cc4ncccc4n3n2)c1
(2) O=C(Oc1cccc(-c2nc(N3CCOCC3)c3cc4ncccc4n3n2)c1)c1ccncc1
# min-compare on inhibition between 1 and 2 Use the label to indicate which entry you chose.
1
